measured_on: DCAF1 WD40 domain (residues 1077-1390) (Homo sapiens)
Construct: DCAF1 WD40 domain (residues 1077-1390)
Sequence (Q9Y4B6 1077-1390): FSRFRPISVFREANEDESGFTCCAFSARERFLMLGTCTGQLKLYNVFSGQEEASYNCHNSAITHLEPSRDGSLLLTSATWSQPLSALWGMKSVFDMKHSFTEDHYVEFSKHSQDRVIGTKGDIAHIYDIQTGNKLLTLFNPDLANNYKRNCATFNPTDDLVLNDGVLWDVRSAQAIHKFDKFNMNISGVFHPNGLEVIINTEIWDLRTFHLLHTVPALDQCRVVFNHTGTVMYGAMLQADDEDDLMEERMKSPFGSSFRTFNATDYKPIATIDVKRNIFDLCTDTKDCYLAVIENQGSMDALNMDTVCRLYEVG
assay_comment: DCAF1 binding assay by SPR (Biacore 8K+), DCAF1-3 KD
conditions: 25 °C, read-out: DCAF1-3 SPR (KD)
property_label: Kd

Query: State, in one line, measured Kd of c1ccc2c(c1)nc(N1CCC[C@@H](Nc3cc(N4CCOCC4)ccn3)C1)c1nnnn12 [I-423]
Reply: > 200 µM

Query: Give Kd for the following molecule: c1ccc2c(N3CCC[C@@H](Nc4cc(N5CCOCC5)ccn4)C3)nccc2c1 [I-62]
Reply: > 200 µM

Query: Fill in Kd for record NC(=O)C[C@H](NC(=O)c1c[nH]c(Cc2ccccc2)c1-c1c(F)cccc1F)c1cccc(Cl)c1 [I-566]
Reply: < 10 µM
